- Tested on: human sensory panel (sweet, bitter or astringent taste)
- ASSAY_INFO: Sensory testing in model bases (human sensory panel, 20 trained panelists)
- Type: in vivo
- DETAILS: 10 ppm; scale of −5 (strong masking effect) to 5 (strong enhancing effect); 0 = reference water solution containing 4% sucrose or 10 ppm mixture of Limonin, Naringin and Nomilin
MEASUREMENT_TYPE: Bitterness

See these solved cases before continuing.
For COc1c(O)cc(O)c2c(=O)cc(-c3ccccc3)oc12 [Compound 109, 5,7-dihydroxy-8-methoxyflavone] , what is its reported Bitterness?
−1.54

For COc1cc(-c2oc3cc(O)cc(O)c3c(=O)c2O)ccc1O [Compound 106, 3,4′,5,7-tetrahydroxy-3′-methoxyflavone] , what is its reported Bitterness?
−1.47

Okay, next one:
For COc1ccc(-c2cc(=O)c3c(O)c(OC)c(O)cc3o2)cc1OC [Compound 105, 5,7-dihydroxy-6,3′,4′-trimethoxyflavone] , what is its reported Bitterness?
−2.02
